Assay: chemical genetic growth profiling, strain panel (AID 1159580);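 also: tested at 20 µM; growth read once vehicle control cultures reached saturation at 30 °C; lower values mean less growth of the strain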
Details: S. cerevisiae deletion strains, growth OD, locus YNL071W, strain lat1
Screen size: about 5,500 compounds; about 2,000 (36%) were called active. Roughly 18% stayed inconclusive and do not appear here. Rule as the data show it: active = normalized growth mostly below about 0.91 (no sharp cut-off); inconclusive = no clear call, values can overlap the other calls; inactive = mostly above about 0.92. Some of the results follow.
Outcomes: active, inactive

molecule | label class
COc1ccc2c(c1OC)C(=O)OC2[C@H]1c2c(cc3c(c2OC)OCO3)CCN1C (stereo partly specified) | inactive
COc1cc([C@@H]2c3cc4c(c(O)c3C[C@H]3COC(=O)[C@@H]32)OCO4)cc(OC)c1OC | inactive
COc1ccc(CCN2CCC(Nc3nc4ccccc4n3Cc3ccc(F)cc3)CC2)cc1 | inactive
CC(C)NNC(=O)c1ccncc1 | inactive
COc1ccc2c(c1)O[C@H]1c3ccc(OC)cc3OC[C@@H]21 | inactive
CC(C)C(C)/C=C/C(C)[C@H]1CCC2C3=CCC4CC(=O)CC[C@]4(C)C3CC[C@@]21C (stereo partly specified) | inactive
NS(=O)(=O)c1cc2c(cc1Cl)NC(C(Cl)Cl)NS2(=O)=O (stereo unspecified) | inactive
CCC(C)C(=O)O[C@H]1C[C@H](O)C=C2C=C[C@H](C)[C@H](CC[C@@H](O)C[C@@H](O)CC(=O)O)C21 (stereo partly specified) | inactive
NC(CO)C(=O)NNCc1ccc(O)c(O)c1O (stereo unspecified) | inactive
CC1=CC2C(CC1=O)C(C)=CCC2C(C)C (stereo unspecified) | active
Nc1nc2ncc(=O)[nH]c2c(=O)[nH]1 | inactive
O=S1OCC2C(CO1)C1(Cl)C(Cl)=C(Cl)C2(Cl)C1(Cl)Cl (stereo unspecified) | inactive
CC(=O)OC1CCC2(C)C(=CC=C3C2CCC2(C)C3CCC2C(C)/C=C/C(C)C(C)C)C1(C)C (stereo unspecified) | inactive
NC(=O)c1cccc(N)c1 | inactive
CC1(C)O[C@H]2[C@H](O)C[C@](O)(C(N)=O)C[C@H]2O1 | inactive
Cc1c(Cl)cccc1Nc1ccccc1C(=O)O | active
CC(C)NCC(O)COc1cccc2ccccc12 (stereo unspecified) | inactive
O=C1NC(=O)C(=O)C(=O)N1 | inactive
Cc1ccc(Cl)c(Nc2ccccc2C(=O)O)c1Cl | active
CC(C)(C)CC(C)(C)c1ccc(O)c(Cc2ccc(Cl)cc2Cl)c1 | inactive
CCOC(=O)[C@H](CCc1ccccc1)N[C@@H](C)C(=O)N1[C@H](C(=O)O)C[C@@H]2CCC[C@@H]21 | inactive
CC(C)C(C)/C=C/C(C)C1CCC2C3=CC=C4CC(O)CCC4(C)C3CCC21C (stereo unspecified) | active
C[C@@H]1C(=O)OC2[C@H](O)C34[C@@H]5OC(=O)[C@@]3(O[C@@H]3OC(=O)[C@H](O)[C@@]34[C@H](C(C)(C)C)[C@H]5O)[C@]21O (stereo partly specified) | inactive
COc1ccc(-c2coc3cc(OC)cc(OC)c3c2=O)cc1 | inactive
CC(=O)N[C@@H](CS)C(=O)O | inactive
COc1c(OC)c2occc2c2oc(=O)ccc12 | inactive
CN1C(C(=O)Nc2ccccn2)=C(O)c2ccccc2S1(=O)=O | active
COC(=O)C(O)c1ccccc1 (stereo unspecified) | inactive
Nc1ccn(C2O[C@H](CO)[C@@H](O)[C@@H]2O)c(=O)n1 (stereo partly specified) | inactive
CCOC(=O)c1ccc(O)cc1 | inactive
Cc1coc2c1C(=O)C(=O)c1c-2ccc2c1CCCC2(C)C | active
N[C@@H](CC(=O)N1CCn2c(nnc2C(F)(F)F)C1)Cc1cc(F)c(F)cc1F | inactive
COc1ccc([C@H]2Oc3cc(OC)cc(OC)c3C[C@H]2O)cc1 | inactive
O=C(O)CN1C(=O)c2cccc3cccc(c23)C1=O | inactive
Cc1cccc(Nc2ccccc2C(=O)O)c1C | active
CC[C@H](C)C(=O)O[C@H]1C[C@@H](C)C=C2C=C[C@H](C)[C@H](CC[C@@H]3C[C@@H](O)CC(=O)O3)[C@H]21 | inactive
